# System: SF-539 CNS
# procedure_text: NCI-60 one-dose screen, 48 h
# assay_setup: 10 µM unless noted
About 83,000 compounds went through this panel and 20% of them were active in at least one assay; those are over-represented in the sample as a whole. Calls of active or inactive are those of the source. How the source made its calls: active means growth percent below 10; inactive means the rest.
Your answer must be one of the following: active, inactive

Example cases with answers are listed next.
compound: Nc1nc(-c2cc3c(cc2Cl)NC(=O)/C3=C/c2ccc(Cl)cc2)cs1
class: inactive

compound: COc1cc(NC(C)CCCN2C(=O)c3ccccc3C2=O)c2ncccc2c1OC (stereo not given)
class: inactive

compound: COc1ccc(/C=C/C(=O)/C=C(/C=C/c2ccc(OC)c(OC)c2OC)OB(F)F)c(OC)c1OC
class: inactive

Challenge: Call for entry `COc1ccc(C(=O)NC(=O)Nc2ccc3c(c2)NC(=O)/C3=C\c2[nH]c(C)c(C(=O)O)c2C)cc1` :
Response given: inactive

Challenge: Call for entry `CN(C)c1ncc(C#Cc2c(F)cccc2F)c2ccccc12` :
Response given: inactive

Challenge: Call for entry `O=C1c2ccccc2C(=O)c2c(NCCN=Cc3c(O)ccc4ccccc34)cccc21` :
Response given: inactive

Challenge: Call for entry `COc1ccc(C(=O)NC(=O)Nc2ccc3c(c2)NC(=O)/C3=C\c2[nH]c(C)c(C(=O)O)c2C)c(F)c1` :
Response given: inactive

Challenge: Call for entry `Cc1ccccc1C[P+](c1ccccc1)(c1ccccc1)c1ccccc1` :
Response given: inactive

Challenge: Call for entry `Nc1nccc2c1ccn2-c1ccc(NC(=O)c2ccc(N3CCOCC3)c(C(F)(F)F)c2)cc1` :
Response given: active

Challenge: Call for entry COc1cc(NC(C)CCCN2C(=O)c3ccccc3C2=O)c2nc(C)ccc2c1OC (stereo not given) :
Response given: inactive

Challenge: Call for entry `Nn1c(CN2CCN(c3cc4c(cc3F)c(=O)c(C(=O)O)cn4C3CC3)CC2)n[nH]c1=S` :
Response given: inactive

Challenge: Call for entry `O=C(O)c1ccc2nc(-c3ccc(OCCCCCOc4ccc(-c5nc6ccc(C(=O)O)cc6[nH]5)cc4)cc3)[nH]c2c1` :
Response given: inactive

Challenge: Call for entry `CCOc1ccc(NC2=C(Cl)C(=O)c3ccccc3C2=O)cc1` :
Response given: inactive

Challenge: Call for entry `NCC(=O)NS(=O)(=O)OC[C@H]1O[C@@H](n2cnc3c(N)ncnc32)[C@H](O)[C@@H]1O` :
Response given: active

Challenge: Call for entry COC1OCC(OS(=O)(=O)c2ccc(C)cc2)C(OC(=O)c2ccccc2)C1OC(=O)c1ccccc1 (stereo not given) :
Response given: inactive
